Ref: ChEMBL document CHEMBL1201862

# System: SF-539
# protocolDescription: NCI tumour cell line growth inhibition, 48 h
Activity calls are given as the source filed them. Cut-off read from the data, not from the text of the source: active = GI50 up to about 1.1 µM and inactive = higher.
Consider the following compounds; for each one, report its GI50.

Record O=C1C(Nc2ccc(S(=O)(=O)Nc3cnc4ccccc4n3)cc2)=C/C(=N\c2ccc(S(=O)(=O)Nc3cnc4ccccc4n3)cc2)c2ccccc21 , field GI50: 18.9 µM (inactive)

Record NC1C[C@H](n2cc(/C=C/Br)c(=O)[nH]c2=O)C[C@@H]1CO (stereo partly specified) , field GI50: > 100 µM (inactive)

Record COc1cccc(C2N3CCCCC3[C@@H]3c4[nH]c5ccccc5c4CCN23)c1OC (stereo partly specified) , field GI50: 15 µM (inactive)

Record O=C(CC(=O)c1cccc([N+](=O)[O-])c1)C(=O)Nc1ccccc1 , field GI50: > 100 µM (inactive)

Record N#Cc1c(NCCc2ccc(F)cc2)c2ccccc2n2c1nc1ccccc12 , field GI50: 9.27 µM (inactive)

Record [N-]=[N+]=NCC(O)Cn1cnc2c(NC(=O)c3ccccc3)ncnc21 (stereo unspecified) , field GI50: > 100 µM (inactive)

Record CCCSS[C@H]1NC(=O)[C@H]1NC(=O)COc1ccccc1 , field GI50: 15.3 µM (inactive)

Record CCOC(=O)/C(C#N)=C\Sc1ccccc1 , field GI50: 15.8 µM (inactive)

Record C[Si](C)(C)/C=C\CCCN1C(=O)CCC1=O , field GI50: > 100 µM (inactive)

Record Cc1c(C(=O)c2ccc(N)c3ccccc23)c2ccccc2n1CCN1CCOCC1 , field GI50: 19.7 µM (inactive)

Record NC(=O)C12C3C4C1C1C2C3C41C(N)=O (stereo unspecified) , field GI50: > 100 µM (inactive)
